TARGET SYSTEM: T1, Human OX40 (Sino Biological Inc) (human, UniProt P43489 29-216, limits assumed)
T1 construct: Bought soluble protein used as SPR analyte; also called huOX40
T1 sequence: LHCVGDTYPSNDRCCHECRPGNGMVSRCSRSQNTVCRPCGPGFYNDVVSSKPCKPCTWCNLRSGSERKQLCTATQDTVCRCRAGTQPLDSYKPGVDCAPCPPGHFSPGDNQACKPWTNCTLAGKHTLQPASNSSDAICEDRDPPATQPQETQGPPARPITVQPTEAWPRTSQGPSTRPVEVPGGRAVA
METHOD: SPR (Biacore), antibody captured via anti-human Fc, huOX40 analyte
Binary call on kon: t from 400000 M⁻¹ s⁻¹ upward, f beneath that.

BINDER	CATEGORY LABEL
1A7.gr.2 (antibody, V domains shown, human Fc (captured by anti-human Fc)) VH: EVQLVQSGAEVKKPGASVKVSCKASGYTFTDSYMSWVRQAPGQGLEWIGDMYPDNGDSSYNQKFRERVTITVDTSTSTAYLELSSLRSEDTAVYYCVLAPRWYFSVWGQGTLVTVSS VL: DIQMTQSPSSLSASVGDRVTITCRASQDISNYLNWYQQKPGKAPKLLIYYTSRLRSGVPSRFSGSGSGTDFTLTISSLQPEDFATYYCQQGHTLPPTFGQGTKVEIK	t
3C8.gr.5.QG (antibody, V domains shown) VH: EVQLVQSGAEVKKPGASVKVSCKASGYAFTNYLIEWVRQAPGQGLEWIGVINPGSGDTYYSEKFKGRVTLTADTSTSTAYLELSSLRSEDTAVYYCARDRLDYWGQGTLVTVSS VL: DIQMTQSPSSLSASVGDRVTITCHASQDISSYIVWYQQKPGKSFKGLIYHGTNLEQGVPSRFSGSGSGTDFTLTISSLQPEDFATYYCVHYAQFPYTFGQGTKVEIK	t
3C8.gr.2 (antibody, V domains shown, human Fc) VH: EVQLVQSGAEVKKPGASVKVSCKASGYAFTNYLIEWVRQAPGQGLEWIGVINPGSGDTYYSEKFKGRVTITADTSTSTAYLELSSLRSEDTAVYYCARDRLDYWGQGTLVTVSS VL: DIQMTQSPSSLSASVGDRVTITCHASQDISSYIVWYQQKPGKAPKLLIYHGTNLEDGVPSRFSGSGSGTDFTLTISSLQPEDFATYYCVHYAQFPYTFGQGTKVEIK	t
1D2.gr.3 (antibody, V domains shown, human Fc) VH: EVQLVESGPGLVKPSETLSLTCTVSGFSLTDYGVLWVRQPPGKGLEWLGMIWSGGTTDYNAAFISRLTISKDTSKNQVSLKLSSVTAADTAVYYCVREEMDYWGQGTLVTVSS VL: DIQMTQSPSSLSASVGDRVTITCRASQDISNFLNWYQQKPGKAPKLLIYYTSRLHSGVPSRFSGSGSGTDFTLTISSLQPEDFATYYCQQGNTLPWTFGQGTKVEIK	f
3C8.gr.3 (antibody, V domains shown, human Fc) VH: EVQLVQSGAEVKKPGASVKVSCKASGYAFTNYLIEWVRQAPGQGLEWIGVINPGSGDTYYSEKFKGRVTLTADTSTSTAYLELSSLRSEDTAVYYCARDRLDYWGQGTLVTVSS VL: DIQMTQSPSSLSASVGDRVTITCHASQDISSYIVWYQQKPGKAPKLLIYHGTNLEDGVPSRFSGSGSGTDFTLTISSLQPEDFATYYCVHYAQFPYTFGQGTKVEIK	t
3C8.gr.10 (antibody, V domains shown, human Fc) VH: EVQLVQSGAEVKKPGASVKVSCKASGYAFTNYLIEWVRQAPGQGLEWIGVINPGSGDTYYSEKFKGRVTLTRDTSTSTAYLELSSLRSEDTAVYYCARDRLDYWGQGTLVTVSS VL: DIQMTQSPSSLSASVGDRVTITCHASQDISSYIVWYQQKPGKAFKLLIYHGTNLEDGVPSRFSGSGSGTDFTLTISSLQPEDFATYYCVHYAQFPYTFGQGTKVEIK	f
3C8.gr.8 (antibody, V domains shown, human Fc) VH: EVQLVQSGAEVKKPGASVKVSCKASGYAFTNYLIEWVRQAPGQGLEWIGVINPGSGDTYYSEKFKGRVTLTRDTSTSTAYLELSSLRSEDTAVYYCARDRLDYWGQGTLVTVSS VL: DIQMTQSPSSLSASVGDRVTITCHASQDISSYIVWYQQKPGKSFKGLIYHGTNLEDGVPSRFSGSGSGTDFTLTISSLQPEDFATYYCVHYAQFPYTFGQGTKVEIK	f
1D2.gr.2 (antibody, V domains shown, human Fc) VH: EVQLVESGPGLVKPSETLSLTCTVSGFSLTDYGVLWIRQPPGKGLEWIGMIWSGGTTDYNAAFISRVTISKDTSKNQVSLKLSSVTAADTAVYYCVREEMDYWGQGTLVTVSS VL: DIQMTQSPSSLSASVGDRVTITCRASQDISNFLNWYQQKPGKAPKLLIYYTSRLHSGVPSRFSGSGSGTDFTLTISSLQPEDFATYYCQQGNTLPWTFGQGTKVEIK	f

These measurements were taken from patent US20150307617A1.
